Assay: ATG_TA_CIS: Attagene CIS-FACTORIAL HepG2 Assay for human TA Basal Promoter (AID 2282964)
Conditions: HepG2 Attagene CIS-factorial TA basal promoter reporter; actives raise or lower the signal
Active and inactive are the calls of the source. The calls were made as follows: active = hit-call score of the fitted dose curve at least 0.9, where 1 is the maximum; inactive = score below 0.9.
Pick from active, inactive when you respond.

Fill in: this test's call for CCOS(=O)(=O)OCC is ___ inactive

Fill in: this test's call for O=P1(N(CCCl)CCCl)NCCCO1 (stereo not given) is ___ inactive

Fill in: this test's call for N#Cc1ccc(O)cc1 is ___ inactive

Fill in: this test's call for CCCCC(CC)COP(=O)(Oc1ccccc1)Oc1ccccc1 (stereo not given) is ___ active

Fill in: this test's call for NNC(N)=S is ___ inactive

Fill in: this test's call for c1ccc(OP(Oc2ccccc2)Oc2ccccc2)cc1 is ___ inactive

Fill in: this test's call for Cn1[nH]nnc1=S is ___ inactive

Fill in: this test's call for O=c1[nH]c2ccccc2c(=O)o1 is ___ inactive

Fill in: this test's call for O=[N+]([O-])c1ccc(Cl)c(Cl)c1 is ___ inactive

Fill in: this test's call for O=S(=O)(F)C(F)(F)C(F)(F)C(F)(F)C(F)(F)C(F)(F)C(F)(F)C(F)(F)C(F)(F)F is ___ inactive

Fill in: this test's call for ClC1=C(Cl)C2(Cl)C3C(Cl)C(Cl)CC3C1(Cl)C2(Cl)Cl (stereo not given) is ___ active

Fill in: this test's call for COC(N)=O is ___ inactive

Fill in: this test's call for O=[N+]([O-])c1ccccc1 is ___ inactive

Fill in: this test's call for CCOC(=O)c1ccccc1C(=O)OCC is ___ inactive

Fill in: this test's call for COC(=O)C(F)(F)C(F)(F)OC(F)(C(F)(F)F)C(F)(F)OC(F)=C(F)F (stereo not given) is ___ inactive

Fill in: this test's call for CC(C)Nc1ccc(Nc2ccccc2)cc1 is ___ inactive

Fill in: this test's call for CCOc1ccc(C(C)(C)COCc2cccc(Oc3ccccc3)c2)cc1 is ___ inactive

Fill in: this test's call for CCOC(=O)c1ccccc1N is ___ inactive

Fill in: this test's call for CC(Cl)(Cl)C(=O)O is ___ inactive

Fill in: this test's call for Clc1ccc(Oc2ccccc2)cc1 is ___ inactive

* * *

Experiment: TOX21_p53_BLA_p3_viability: Viability Assessment in the Tox21 HCT-116 p53 Agonism Beta-lactamase Assay, Phase 3 (AID 2283593);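 also: cells exposed to compound for 16 h before reading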
Results filed as inconclusive are left out. Calls of active or inactive are those of the source. How the source made its calls: active means hit-call score of the fitted dose curve at least 0.9, where 1 is the maximum; inconclusive means response in the unintended direction; inactive means score below 0.9.
assay endpoint: outcome

# smiles representation, assay endpoint, endpoint value
records = [
    ("CCCCN(CC)C(=O)SCCC", "outcome", "inactive"),
    ("Nc1ccc(Cl)cc1", "outcome", "inactive"),
    ("C/C(=N\\NC(=O)Nc1cc(F)cc(F)c1)c1ncccc1C(=O)O", "outcome", "inactive"),
]

* * *

Test: APR_HepG2_P-H2AX_72hr: Apredica 72-hour HepG2 Assay for H2AX Phosphorylation (AID 2282916);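 also: phospho-histone H2A.x immunostain intensity per cell marking DNA damage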
Conditions: imaging, actives raise or lower the signal
Active and inactive are the calls of the source. How the source made its calls: active means hit-call score of the fitted dose curve at least 0.9, where 1 is the maximum; inactive means score below 0.9.
Pick from True = active, False = inactive when you respond.

Fill in: this test's call for O=P1(N(CCCl)CCCl)NCCCO1 (stereo not given) is ___ False

Fill in: this test's call for CCC(C)(C)c1ccc(O)cc1 is ___ False

Fill in: this test's call for Nc1ccc2ccccc2c1 is ___ False

Fill in: this test's call for [N-]=[N+]=[N-] is ___ False

Fill in: this test's call for COCCOCCO is ___ False

Fill in: this test's call for O=C(O)C1C(C(=O)O)C2(Cl)C(Cl)=C(Cl)C1(Cl)C2(Cl)Cl (stereo not given) is ___ False

Fill in: this test's call for CN(C)C(=O)Cl is ___ False

Fill in: this test's call for ClC(Cl)c1ccccc1 is ___ False

Fill in: this test's call for ClC(Cl)(Cl)c1ccccc1 is ___ False

Fill in: this test's call for Nc1ccc(Cl)cc1 is ___ False

Fill in: this test's call for CCOS(=O)(=O)OCC is ___ False

Fill in: this test's call for ClC1=C(Cl)C2(Cl)C3C(Cl)C(Cl)CC3C1(Cl)C2(Cl)Cl (stereo not given) is ___ True

Fill in: this test's call for Cc1ccc([N+](=O)[O-])cc1C is ___ False

Fill in: this test's call for CCCCN(CCCC)N=O is ___ False

Fill in: this test's call for CCCCc1ccccc1 is ___ False

* * *

Molecular target: Estrogen receptor (Homo sapiens) + Estrogen receptor beta (Homo sapiens) (UniProt P03372+Q92731)
Sequence (P03372 whole entry, looked up, the tested form may be a part): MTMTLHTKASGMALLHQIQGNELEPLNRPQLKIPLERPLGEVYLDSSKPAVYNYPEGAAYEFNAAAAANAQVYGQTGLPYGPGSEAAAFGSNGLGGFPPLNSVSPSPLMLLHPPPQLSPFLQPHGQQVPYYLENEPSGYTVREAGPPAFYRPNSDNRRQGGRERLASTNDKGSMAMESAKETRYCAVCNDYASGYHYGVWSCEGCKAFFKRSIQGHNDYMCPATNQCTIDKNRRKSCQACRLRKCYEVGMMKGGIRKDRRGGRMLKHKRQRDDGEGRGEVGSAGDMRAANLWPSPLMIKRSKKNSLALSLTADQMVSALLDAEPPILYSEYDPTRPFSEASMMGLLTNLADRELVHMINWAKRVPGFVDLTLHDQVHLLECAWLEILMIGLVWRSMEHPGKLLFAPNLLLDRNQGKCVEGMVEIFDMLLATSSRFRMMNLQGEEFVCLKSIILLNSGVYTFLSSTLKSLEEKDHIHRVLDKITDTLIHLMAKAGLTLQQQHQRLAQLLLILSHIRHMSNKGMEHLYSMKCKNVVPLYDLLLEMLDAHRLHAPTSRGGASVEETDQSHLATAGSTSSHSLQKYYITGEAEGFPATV
Sequence (Q92731 whole entry, looked up, the tested form may be a part): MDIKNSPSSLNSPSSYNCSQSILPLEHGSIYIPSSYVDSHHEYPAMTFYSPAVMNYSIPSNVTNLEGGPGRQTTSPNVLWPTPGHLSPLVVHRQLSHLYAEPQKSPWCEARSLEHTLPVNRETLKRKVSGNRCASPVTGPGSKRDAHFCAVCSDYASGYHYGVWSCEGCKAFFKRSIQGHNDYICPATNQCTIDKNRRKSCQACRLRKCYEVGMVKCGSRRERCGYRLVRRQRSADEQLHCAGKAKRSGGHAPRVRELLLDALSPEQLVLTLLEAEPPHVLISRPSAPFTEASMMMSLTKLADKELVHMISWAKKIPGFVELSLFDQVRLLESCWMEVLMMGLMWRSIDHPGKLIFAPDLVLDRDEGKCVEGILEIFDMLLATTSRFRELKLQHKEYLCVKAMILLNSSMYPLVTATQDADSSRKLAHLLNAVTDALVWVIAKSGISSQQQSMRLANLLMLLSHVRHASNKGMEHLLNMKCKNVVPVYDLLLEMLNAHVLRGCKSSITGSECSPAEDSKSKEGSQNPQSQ
Assay: OT_ER_ERaERb_1440: Odyssey Thera (OT) 24-hour HEK293T Protein-Complementation Assay for Estrogen Receptor-alpha/-beta Homodimer (AID 2283356);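 also: heteromer of ER alpha and ER beta binding domains; hits raise reporter fluorescence and both agonists and antagonists give an increase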
Records with an inconclusive call do not appear. Active and inactive are the calls of the source. How the source made its calls: active means hit-call score of the fitted dose curve at least 0.9, where 1 is the maximum; inconclusive means response in the unintended direction; inactive means score below 0.9.
Pick from yes (1) for active, no (0) for inactive when you respond.

Fill in: this test's call for CCCCN(CCCC)SN(C)C(=O)Oc1cccc2c1OC(C)(C)C2 is ___ no (0)

Fill in: this test's call for CCN(CC)c1ccccc1 is ___ no (0)

Fill in: this test's call for ClC(Cl)(Cl)c1ccccc1 is ___ no (0)

Fill in: this test's call for CC(C)(C)N(NC(=O)c1ccc(Cl)cc1)C(=O)c1ccccc1 is ___ no (0)

Fill in: this test's call for CC1(C)CN=C(NN=C(/C=C/c2ccc(C(F)(F)F)cc2)/C=C/c2ccc(C(F)(F)F)cc2)NC1 is ___ no (0)

Fill in: this test's call for CCCCC(CC)COP(=O)(Oc1ccccc1)Oc1ccccc1 (stereo unspecified) is ___ yes (1)

* * *

Assay: ATG_E_Box_CIS: Attagene CIS-FACTORIAL HepG2 Assay for human Enhancer Box (E-box) (AID 2282936)
Conditions: HepG2 E-box cis-reporter transcription, actives raise or lower the signal
Active and inactive are the calls of the source. How the source made its calls: active means hit-call score of the fitted dose curve at least 0.9, where 1 is the maximum; inactive means score below 0.9.
Pick from active, inactive when you respond.

Fill in: this test's call for Cc1ccc(O)cc1C is ___ inactive

Fill in: this test's call for CCCCc1ccc(O)cc1 is ___ inactive

Fill in: this test's call for OCC(F)(F)OC(F)(F)C(F)(F)OC(F)(F)CO is ___ inactive

Fill in: this test's call for FC(F)(F)c1ccc(Cl)cc1 is ___ inactive

Fill in: this test's call for O=C(CBr)OCc1ccccc1 is ___ inactive

Fill in: this test's call for CC(O)C(F)(F)C(F)(F)F (stereo unspecified) is ___ inactive

Fill in: this test's call for CCN(CC)c1ccccc1 is ___ inactive

Fill in: this test's call for CC(C)(C)N(NC(=O)c1ccc(Cl)cc1)C(=O)c1ccccc1 is ___ inactive

Fill in: this test's call for C=CC(=O)OCC(F)(F)C(F)F is ___ inactive

Fill in: this test's call for O=S(=O)(F)C(F)(F)C(F)(F)C(F)(F)C(F)(F)C(F)(F)C(F)(F)C(F)(F)C(F)(F)F is ___ inactive

Fill in: this test's call for O=c1ssc(Cl)c1Cl is ___ inactive

Fill in: this test's call for CCOP(=S)(OCC)SCSc1ccc(Cl)cc1 is ___ inactive

Fill in: this test's call for CCOP(=S)(NC(C)C)Oc1ccccc1C(=O)OC(C)C (stereo unspecified) is ___ inactive

Fill in: this test's call for Clc1ccc(Oc2ccccc2)cc1 is ___ inactive

Fill in: this test's call for CCOP(=S)(OCC)SCSCC is ___ inactive

Fill in: this test's call for COC(N)=O is ___ inactive

Fill in: this test's call for CCCCC(CC)COC(=O)c1c(Br)c(Br)c(Br)c(Br)c1C(=O)OCC(CC)CCCC (stereo unspecified) is ___ inactive

Fill in: this test's call for Cc1cccc(N)c1 is ___ inactive

Fill in: this test's call for CC(Cl)CN(C)C (stereo unspecified) is ___ inactive

Fill in: this test's call for CC1=C(C(=O)Nc2ccccc2)S(=O)(=O)CCO1 is ___ active

Fill in: this test's call for N#C/C=C/c1ccccc1 is ___ inactive

Fill in: this test's call for CN(C)C(=O)Cl is ___ inactive

Fill in: this test's call for Cn1[nH]nnc1=S is ___ inactive

Fill in: this test's call for NC(=O)C(F)(F)C(F)(F)F is ___ inactive

Fill in: this test's call for ClC(Cl)(Cl)c1ccccc1 is ___ inactive

Fill in: this test's call for OCC(F)(F)OC(F)(F)C(F)(F)OC(F)(F)C(F)(F)OC(F)(F)CO is ___ inactive

* * *

Read-out: CD38, CD38 (gene 952)
Assay: BSK_SAg_CD38: BioMAP Diversity Plus: SAg Assay for CD38 Biomarker Activity (AID 2283087)
Settings: primary human HUVEC with PBMC; actives raise or lower the signal
Active and inactive are the calls of the source. Rule for the calls: active = hit-call score of the fitted dose curve at least 0.9, where 1 is the maximum; inactive = score below 0.9.
Pick from active, inactive when you respond.

Fill in: this test's call for C=CC(=O)OCC(CC)(COC(=O)C=C)COC(=O)C=C is ___ active

Fill in: this test's call for CCN(CC)c1ccccc1 is ___ inactive

Fill in: this test's call for CC(Cl)CN(C)C (stereo not drawn) is ___ inactive

Fill in: this test's call for O=S(=O)(F)C(F)(F)C(F)(F)C(F)(F)C(F)(F)C(F)(F)C(F)(F)C(F)(F)C(F)(F)F is ___ inactive

Fill in: this test's call for FC(F)(F)C(F)(C(F)(F)F)C(F)(F)C(F)(F)CC1CO1 (stereo not drawn) is ___ inactive

Fill in: this test's call for O=C(O)C(F)(F)OC(F)(F)C(F)(F)OC(F)(F)C(=O)O is ___ inactive

Fill in: this test's call for COP(N)(=S)OC is ___ inactive

Fill in: this test's call for CC(O)C(F)(F)C(F)(F)F (stereo not drawn) is ___ inactive

Fill in: this test's call for Cc1ccc(N)cc1N is ___ inactive

Fill in: this test's call for CCOP(=S)(S)OCC is ___ inactive

Fill in: this test's call for O=S1(=O)OCC2C(CO1)C1(Cl)C(Cl)=C(Cl)C2(Cl)C1(Cl)Cl (stereo not drawn) is ___ inactive

Fill in: this test's call for c1ccc2c(c1)sc1ccccc12 is ___ inactive

Fill in: this test's call for CCOP(=S)(OCC)SCS(=O)(=O)CC is ___ inactive

Fill in: this test's call for CCC(C)(C)c1ccc(O)cc1 is ___ inactive

Fill in: this test's call for O=C(O)C=CC(F)(C(F)(F)F)C(F)(F)F is ___ inactive

Fill in: this test's call for Nc1ccc2ccccc2c1 is ___ inactive

Fill in: this test's call for CCCCCCCc1ccc(O)cc1 is ___ active

Fill in: this test's call for CCCCOCCOP(=O)(OCCOCCCC)OCCOCCCC is ___ inactive

Fill in: this test's call for CCCCN(CCCC)SN(C)C(=O)Oc1cccc2c1OC(C)(C)C2 is ___ active

Fill in: this test's call for c1ccc(OP(Oc2ccccc2)Oc2ccccc2)cc1 is ___ inactive

Fill in: this test's call for CC(C)Nc1ccc(Nc2ccccc2)cc1 is ___ active

Fill in: this test's call for CCCCc1ccccc1 is ___ inactive

Fill in: this test's call for CN(C)C(=O)Cl is ___ inactive

Fill in: this test's call for OCC(F)(F)OC(F)(F)C(F)(F)OC(F)(F)CO is ___ inactive

Fill in: this test's call for CCCCC(CC)COP(=O)(Oc1ccccc1)Oc1ccccc1 (stereo not drawn) is ___ active

Fill in: this test's call for Nc1ccc(Cl)cc1 is ___ inactive

Fill in: this test's call for O=C(O)C(F)(F)OC(F)(F)C(F)(F)OC(F)(F)F is ___ inactive

Fill in: this test's call for Nc1cc2c3c(c1)C(c1ccccc1)=N[C@@H](NC(=O)c1cccnc1)C(=O)N3CC2 is ___ inactive

Fill in: this test's call for O=[N+]([O-])c1ccc(Cl)c(Cl)c1 is ___ inactive

Fill in: this test's call for CCOS(=O)(=O)OCC is ___ inactive

Fill in: this test's call for c1ccc2c(c1)Nc1ccccc1S2 is ___ inactive

Fill in: this test's call for ClC1=C(Cl)C2(Cl)C3C(Cl)C(Cl)CC3C1(Cl)C2(Cl)Cl (stereo not drawn) is ___ active

Fill in: this test's call for Cc1cccc(N)c1 is ___ inactive
